Molecular target: T1, biotinylated cynomolgus monkey VWF cysteine knot (CK) domain construct (cynomolgus monkey, biotinylated in vitro (BirA) on the biotinylation tag; one N-glycan)
T1 construct: Expressed in HEK293 EBNA cells; disulfide-linked homodimer; also called cyno VWF CK; cyno VWF CK domain; not shown: in vitro biotinylation tag, HRV-3C site and 3 VWF residues before the CK domain
T1 chain: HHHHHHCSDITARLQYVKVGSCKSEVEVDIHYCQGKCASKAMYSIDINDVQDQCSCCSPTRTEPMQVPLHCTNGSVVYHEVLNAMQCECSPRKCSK
Assay: SPR, scFv captured via anti-SV5, CK domain injected, pH 7.4, apparent Kd;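 also: scFvs from crude yeast supernatants printed on an amine-coupled anti-SV5 lawn, Kd computed as koff over kon, likely overestimating affinity because the CK construct is dimeric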
observed_property: pKd
In plain terms, pKd is the concentration in mol/L turned into minus its base-10 logarithm.

Known pKd results, listed for orientation:
INSERT INTO assay_data (binder, data_value) VALUES
  ('Lib8_P4_C10_scFv (scFv, VH-linker-VL; not shown: C-terminal 3xFLAG and SV5 tags) scFv: EVQLVESGGGLVQPGRSLRLSCAASGFNFHNYDMHWVRQAPGKGLEWVSAISGSSDTMDYADSVEGRFTISRDNAKNSLYLQMNSLRAEDTAVYYCVRASWYGTFFDYWGQGTLVTVSSSGGSTITSYNVYYTKLSSSGTDIQMTQSPSSLSASVGDRVTITCRASQDISGWLAWYQQKPGKAPKLLIYAASSLQDGVPSRFSGSGSGTDFTLTISSLQPEDVATYYCQQSYRIPSTFGGGTKVEIK', 9.00),
  ('Lib1_P1_G3_scFv (scFv, VH-linker-VL; not shown: C-terminal 3xFLAG and SV5 tags) scFv: QVQLVQSGAEVKKPGASVKVSCKVSGYTSRQYIHWVRQAPGKGLEWMGWVTPIFGTTNYAQKFQGRVTMTEDTSTDTAYMELSSLKSEDTAVYYCAREWTGTTAFDIWGQGTLVTVSSSGGSTITSYNVYYTKLSSSGTDIQMTQSPSSVSASVGDRVTITCRASQDIGHYLAWYQQKPGKAPKLLIYAASNRASGVPSRFSGSGSGTDFTLTISSLQPEDFANYYCQQGYSAPYGFGGGTKVEIK', 10.49);

# pKd lookup, item Lib1_P1_D1_scFv (scFv, VH-linker-VL; not shown: C-terminal 3xFLAG and SV5 tags) scFv: QVQLVQSGAEVKKPGASVKVSCKVSGDTFTDRYIHWVRQAPGKGLEWMGGINTIFGTAIYAQKFQGRVTMTEDTSTDTAYMELSSLKSEDTAVYYCAREGATVSTNFDYWGQGTLVTVSSSGGSTITSYNVYYTKLSSSGTDIQMTQSPSSVSASVGDRVTITCRASQDIRKSLAWYQQKPGKAPKLLIYDISNRPSGVPSRFSGSGSGTDFTLTISSLQPEDFANYYCQQGYSAPYGFGGGTKVEIK
9.73

I would be grateful if you could share the reported pKd for Lib6_P3_E10_scFv (scFv, VH-linker-VL; not shown: C-terminal 3xFLAG and SV5 tags) scFv: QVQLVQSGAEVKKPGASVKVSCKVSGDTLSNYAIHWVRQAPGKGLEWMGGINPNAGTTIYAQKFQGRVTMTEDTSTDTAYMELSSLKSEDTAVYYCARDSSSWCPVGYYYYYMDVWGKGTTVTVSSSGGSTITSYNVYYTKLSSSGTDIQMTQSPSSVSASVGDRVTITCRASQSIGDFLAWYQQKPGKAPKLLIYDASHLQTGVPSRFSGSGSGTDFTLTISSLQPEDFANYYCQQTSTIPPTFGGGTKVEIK .
8.71

# pKd lookup, item 8226_Lib8_scFv (scFv, VH-linker-VL; not shown: C-terminal 3xFLAG and SV5 tags) scFv: EVQLVESGGGLVQPGRSLRLSCAASGFNFHNYDMHWVRQAPGKGLEWVSAISGGAVSTDYADSVEGRFTISRDNAKNSLYLQMNSLRAEDTAVYYCARSSWYGGQIDFWGQGTLVTVSSSGGSTITSYNVYYTKLSSSGTDIQMTQSPSSLSASVGDRVTITCRASQDISGWLAWYQQKPGKAPKLLIYAASSLQDGVPSRFSGSGSGTDFTLTISSLQPEDVATYYCQQSYRIPSTFGGGTKVEIK
9.26

Please give the measured pKd for this binder: 4761_Lib8_scFv (scFv, VH-linker-VL; not shown: C-terminal 3xFLAG and SV5 tags) scFv: EVQLVESGGGLVQPGRSLRLSCAASGFTFSSDTMHWVRQAPGKGLEWVSAISSSGDHTDYADSVEGRFTISRDNAKNSLYLQMNSLRAEDTAVYYCAREGLRGYYFDYWGQGTLVTVSSSGGSTITSYNVYYTKLSSSGTDIQMTQSPSSLSASVGDRVTITCRASQGISGHLAWYQQKPGKAPKLLIYAASALQSGVPSRFSGSGSGTDFTLTISSLQPEDVATYYCQQSHSLPWTFGGGTKVEIK
8.57

Look up pKd for this binder: Lib4_P2_B1_scFv (scFv, VH-linker-VL; not shown: C-terminal 3xFLAG and SV5 tags) scFv: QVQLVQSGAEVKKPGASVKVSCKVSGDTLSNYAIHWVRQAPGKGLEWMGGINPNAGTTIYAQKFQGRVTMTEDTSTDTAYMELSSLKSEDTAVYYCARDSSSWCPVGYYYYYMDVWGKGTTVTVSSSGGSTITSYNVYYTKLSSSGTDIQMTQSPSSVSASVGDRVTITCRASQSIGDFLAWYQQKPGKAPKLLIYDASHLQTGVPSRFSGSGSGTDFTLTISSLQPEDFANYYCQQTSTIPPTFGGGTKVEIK
9.32

What does the record list as pKd for 1081_Lib8_scFv (scFv, VH-linker-VL; not shown: C-terminal 3xFLAG and SV5 tags) scFv: EVQLVESGGGLVQPGRSLRLSCAASGFNFHNYDMHWVRQAPGKGLEWVSAISGGAVSTDYADSVEGRFTISRDNAKNSLYLQMNSLRAEDTAVYYCARSSWYGGQIDFWGQGTLVTVSSSGGSTITSYNVYYTKLSSSGTDIQMTQSPSSLSASVGDRVTITCRASESVSSWLAWYQQKPGKAPKLLIYGASTLEGGVPSRFSGSGSGTDFTLTISSLQPEDVATYYCQQAYRTPVTFGGGTKVEIK ?
9.78
